Source listed as patent US20250197488A1.

binders and their reported koff
TEST_TARGET: T1, human IL-11 (AAH12506.1, Pro22-Leu199) (human, UniProt P20809 22-199)
T1 construct: The range Pro22-Leu199 counts on AAH12506.1; The Octet runs say only 'human IL-11'; also called hIL-11
T1 chain: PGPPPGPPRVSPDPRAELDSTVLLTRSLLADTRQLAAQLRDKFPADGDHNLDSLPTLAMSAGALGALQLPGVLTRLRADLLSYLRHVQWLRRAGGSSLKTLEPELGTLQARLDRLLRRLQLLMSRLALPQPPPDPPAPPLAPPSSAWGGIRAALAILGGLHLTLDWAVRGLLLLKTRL
METHOD: BLI (Octet), antibody captured, human IL-11 in solution
Just the number in s⁻¹, nothing appended.

As a guide, the following entries are already answered.
# BINDER, koff [s⁻¹]
measured = [
    ("hz18A10-VH + hz18A10-VLm12 (antibody, V domains shown, Constant regions not restated for this antibody) VH: EVQLVQSGAEVKKPGASVKVSCKASGYTFTTYNMDWVRQAPGQGLEWMGTIYPGNGDTSYNQKFKGRVTMTRDTSTSTVYMELSSLRSEDTAVYYCARGDLYALDYWGQGTLVTVSS VL: DIQMTQSPSSLSASVGDRVTITCKASQSVSNDVAWYQQKPGKAPKLLIYSASSRYTGVPSRFSGSGSGTDFTFTISSLQPEDIATYYCQHDYSSPYTFGQGTKLEIK", 0.00265),
    ("hz18A10-VHm1 + hz18A10-VLm7 (antibody, V domains shown, Constant regions not restated for this antibody) VH: EVQLVQSGAEVKKPGASVKVSCKASGYTFTTYNMDWVRQAPGQGLEWMGTIYPGNGDTSYNQKFKGRVTMTRDTSTSTVYMELSSLRSEDTAVYYCARGDLHFLDYWGQGTLVTVSS VL: DIQMTQSPSSLSASVGDRVTITCKASQSVFRDVAWYQQKPGKAPKLLIYSASNRYTGVPSRFSGSGSGTDFTFTISSLQPEDIATYYCQHDYSSPYTFGQGTKLEIK", 0.0013),
    ("hz18A10-VH + hz18A10-VLm3 (antibody, V domains shown, Constant regions not restated for this antibody) VH: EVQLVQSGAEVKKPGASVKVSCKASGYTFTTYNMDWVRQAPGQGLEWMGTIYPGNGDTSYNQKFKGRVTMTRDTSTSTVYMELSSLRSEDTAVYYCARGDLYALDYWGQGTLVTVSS VL: DIQMTQSPSSLSASVGDRVTITCKASHSVSNDVAWYQQKPGKAPKLLIYSASNRYTGVPSRFSGSGSGTDFTFTISSLQPEDIATYYCQHDYSSPYTFGQGTKLEIK", 0.00277),
    ("hz18A10-VHm1 + hz18A10-VL (antibody, V domains shown, Constant regions not restated for this antibody) VH: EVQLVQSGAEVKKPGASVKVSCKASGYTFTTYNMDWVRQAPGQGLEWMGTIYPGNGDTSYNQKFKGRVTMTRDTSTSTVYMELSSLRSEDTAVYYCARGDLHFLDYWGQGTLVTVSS VL: DIQMTQSPSSLSASVGDRVTITCKASQSVSNDVAWYQQKPGKAPKLLIYSASNRYTGVPSRFSGSGSGTDFTFTISSLQPEDIATYYCQHDYSSPYTFGQGTKLEIK", 0.00139),
]

Now turn to the next binder.
Data point: hz18A10-VHm2 + hz18A10-VLm9 (antibody, V domains shown, Constant regions not restated for this antibody) VH: EVQLVQSGAEVKKPGASVKVSCKASGYTFTTYNMDWVRQAPGQGLEWMGTIYPGNGDTSYNQKFKGRVTMTRDTSTSTVYMELSSLRSEDTAVYYCARGDLHYLDYWGQGTLVTVSS VL: DIQMTQSPSSLSASVGDRVTITCKASQSVYSDVAWYQQKPGKAPKLLIYSASNRYTGVPSRFSGSGSGTDFTFTISSLQPEDIATYYCQHDYSSPYTFGQGTKLEIK ; koff = 0.000941
